Reported pIC50 values follow for various compounds
# System: 883617-216-R-J1-PDC complex spheroids, growth, % test/control;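 further: exposure lasted 7 days after dosing on day 3 of spheroid growth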
# assay: Anticancer human tumor 883617-216-R-J1-PDC patient-derived bladder carcinoma cell line growth inhibition [AhR]
# condition: curve of first compound; second compound 0.1 µM
pIC50: −log10 of the molar value.

Take a look at these entries with their results.
>>> result("Nc1ccn(C2OC(CO)C(O)C2(F)F)c(=O)n1 (stereo not drawn) + Cc1cncc(-c2nc(NCCc3c[nH]c4ccccc34)c3ncn(C(C)C)c3n2)c1")
"> 7.50"
>>> result("O=C(c1cc(Cc2n[nH]c(=O)c3ccccc23)ccc1F)N1CCN(C(=O)C2CC2)CC1 + Cc1cncc(-c2nc(NCCc3c[nH]c4ccccc34)c3ncn(C(C)C)c3n2)c1")
"< 5.00"

Proceeding to the next compound to report its pIC50.
Exam item: Please give the measured pIC50 for this compound: CCN(c1cc(-c2ccc(CN3CCOCC3)cc2)cc(C(=O)NCc2c(C)cc(C)[nH]c2=O)c1C)C1CCOCC1 + Cc1cncc(-c2nc(NCCc3c[nH]c4ccccc34)c3ncn(C(C)C)c3n2)c1
Marked response: < 5.52
